Catalogue of IC50 values
# system: recombinant hRIPK2 protein (kinase domain aa 1-299-His-tagged) (Homo sapiens)
# Construct: kinase domain aa 1-299-His-tagged
# Sequence (O43353 1-299): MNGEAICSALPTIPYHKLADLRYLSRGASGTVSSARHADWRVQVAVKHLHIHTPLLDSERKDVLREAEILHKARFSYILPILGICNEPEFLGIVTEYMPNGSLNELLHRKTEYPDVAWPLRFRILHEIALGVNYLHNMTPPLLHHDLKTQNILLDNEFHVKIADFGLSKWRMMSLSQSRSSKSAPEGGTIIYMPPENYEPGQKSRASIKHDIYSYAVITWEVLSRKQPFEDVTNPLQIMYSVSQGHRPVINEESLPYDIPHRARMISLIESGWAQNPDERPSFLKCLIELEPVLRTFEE
# procedure_summary: RIPK2 AlphaLISA assay (displacement of bead-bound CZC-8004 from hRIPK2)
# condition_summary: recombinant hRIPK2 kinase domain 10 nM, 2 h at 23° C.

Consider the worked cases shown below.
COCCO[C@@H]1C[C@H]2COc3ccn4ncc(c4n3)-c3cc(O)cc(c3)NCCN2C1=O; < 10 nM
CO[C@@H]1C[C@H]2COc3ccn4ncc(c4n3)-c3cc(cc(OC(C)C)c3)NCCN2C1=O; < 10 nM
COCCO[C@@H]1C[C@H]2COc3nc4c(cnn4cc3OC3CC4(COC4)C3)-c3cc(cc(OC)c3)NCCN2C1=O; < 10 nM

Please look up its IC50: CO[C@@H]1C[C@H]2COc3ccn4ncc(c4n3)-c3cc(cc(OCC4CC4)c3)NCCN2C1=O
100 to 11000 nM

What about this compound? COc1cc2cc(c1)-c1cnn3cc(OC)c(nc13)OC[C@@H]1C[C@@H](O)C(=O)N1CCN2
< 10 nM

What about this compound? CO[C@H]1C[C@H]2COc3ccn4ncc(c4n3)-c3cc(F)cc(c3)NCCN2C1=O
< 10 nM

What about this compound? CO[C@@H]1C[C@H]2COc3ccn4ncc(c4n3)-c3cc(cc(OCc4ccccc4)c3)NCCN2C1=O
10 to 100 nM

What about this compound? CO[C@@H]1C[C@H]2C(C)Oc3ccn4ncc(c4n3)-c3cc(F)cc(c3)NCCN2C1=O (relative stereo)
10 to 100 nM

What about this compound? O=C1[C@H](OCC2COC2)C[C@H]2COc3ccn4ncc(c4n3)-c3cc(F)cc(c3)NCCN12
< 10 nM

What about this compound? COCCO[C@@H]1C[C@H]2COc3nc4c(cnn4cc3OCCCN(C)C)-c3cc(cc(OC)c3)NCCN2C1=O
< 10 nM

What about this compound? CCO[C@@H]1C[C@H]2COc3ccn4ncc(c4n3)-c3cc(cc(OC)c3)NCCN2C1=O
< 10 nM

* * *

# system: recombinant hRIPK2 protein (kinase domain aa 1-299-His-tagged) (Homo sapiens)
# Construct: kinase domain aa 1-299-His-tagged
# procedure_summary: RIPK2 AlphaLISA assay (displacement of bead-bound CZC-8004 from hRIPK2)
# condition_summary: recombinant hRIPK2 kinase domain 10 nM, 2 h at 23° C.
pIC50: −log10 of the molar value.
measurement_name: pIC50

Please look up its pIC50: CO[C@@H]1C[C@H]2COc3ccn4ncc(c4n3)-c3cc(cc(-n4nccc4C)c3)NCCN2C1=O [Example 43]
> 8.00

What about this compound? CO[C@@H]1C[C@H]2COc3ccn4ncc(c4n3)-c3cc(cc(-c4cnn(CCO)c4)c3)NCCN2C1=O [Example 93]
4.96 to 7.00

* * *

# system: UniProtKB Q12809
# Sequence (Q12809 whole entry): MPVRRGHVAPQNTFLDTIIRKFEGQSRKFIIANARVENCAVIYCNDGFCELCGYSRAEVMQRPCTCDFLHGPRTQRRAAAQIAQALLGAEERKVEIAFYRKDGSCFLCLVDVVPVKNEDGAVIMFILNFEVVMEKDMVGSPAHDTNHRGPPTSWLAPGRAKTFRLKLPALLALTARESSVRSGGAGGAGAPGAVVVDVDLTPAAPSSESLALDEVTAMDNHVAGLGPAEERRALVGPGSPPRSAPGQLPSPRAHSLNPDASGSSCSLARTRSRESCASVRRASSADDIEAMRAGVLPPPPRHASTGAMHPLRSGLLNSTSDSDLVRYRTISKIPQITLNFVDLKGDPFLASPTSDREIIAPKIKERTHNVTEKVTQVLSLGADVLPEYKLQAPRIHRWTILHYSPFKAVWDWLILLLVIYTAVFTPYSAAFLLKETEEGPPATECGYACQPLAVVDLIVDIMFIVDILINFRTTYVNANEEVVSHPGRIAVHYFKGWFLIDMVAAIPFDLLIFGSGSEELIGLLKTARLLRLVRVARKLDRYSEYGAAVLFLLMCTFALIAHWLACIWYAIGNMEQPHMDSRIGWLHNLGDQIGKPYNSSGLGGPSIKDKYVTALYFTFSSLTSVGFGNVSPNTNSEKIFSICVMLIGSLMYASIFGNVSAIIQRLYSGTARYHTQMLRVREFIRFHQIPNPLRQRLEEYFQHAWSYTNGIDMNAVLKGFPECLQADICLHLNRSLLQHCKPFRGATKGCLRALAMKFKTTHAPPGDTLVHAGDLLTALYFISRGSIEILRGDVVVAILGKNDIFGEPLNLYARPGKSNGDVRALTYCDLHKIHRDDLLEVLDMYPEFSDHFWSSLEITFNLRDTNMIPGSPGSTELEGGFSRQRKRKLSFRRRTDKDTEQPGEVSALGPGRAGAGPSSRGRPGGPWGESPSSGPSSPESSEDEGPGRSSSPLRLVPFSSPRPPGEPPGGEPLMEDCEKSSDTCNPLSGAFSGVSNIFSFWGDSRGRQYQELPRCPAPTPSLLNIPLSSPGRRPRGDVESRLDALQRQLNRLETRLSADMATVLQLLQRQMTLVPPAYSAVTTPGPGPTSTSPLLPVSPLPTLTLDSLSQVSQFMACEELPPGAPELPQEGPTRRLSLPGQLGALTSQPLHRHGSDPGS
# procedure_summary: hERG q-patch assay (Assay C, Sophion Qube automated electrophysiology)
# condition_summary: read-out: Assay C: hERG q-patch inhibition IC50
measurement_name: IC50

Consider the worked cases shown below.
CO[C@@H]1C[C@H]2COc3ccn4ncc(c4n3)-c3cc(cc(C(C)=O)c3)NCCN2C1=O [Example 54]; > 10 µM
CO[C@@H]1C[C@H]2COc3nc4c(cnn4cc3-c3cnn(C)c3)-c3cc(F)cc(c3)NCCN2C1=O [Example 67]; > 10 µM

Record CO[C@@H]1C[C@H]2COc3ccn4ncc(c4n3)-c3cc(cc(C(=O)N(C)OC)c3)NCCN2C1=O [Example 55] : what is its IC50 with UniProtKB Q12809?
> 10 µM

What about this molecule? COc1cn2ncc3c2nc1OC[C@@H]1C[C@@H](OC)C(=O)N1CCNc1cc(F)cc-3c1 [Example 1]
> 10 µM

What about this molecule? O=C1[C@H](OCCO)C[C@H]2COc3ccn4ncc(c4n3)-c3cc(F)cc(c3)NCCN12 [Example 79]
1 to 10 µM

What about this molecule? CO[C@@H]1C[C@H]2COc3ccn4ncc(c4n3)-c3cc(F)cc(c3)NCCN2C1=O [Example 3]
> 10 µM
